target: T1, human CD40-Fc protein (amino acid residue 21-193 of SEQ ID NO: 67 linked to N-terminus of amino acid residue … (human, biotin-labeled in the capture ELISA and in the benchmark blocking ELISA; unlabeled when coated in the ligand blocking ELISA); test: capture ELISA; antibody captured, biotin-labeled human CD40-Fc in solution
T1 construct: also called biotin-labeled human CD40-Fc; human CD40-Fc-biotin
T1 sequence (chain, as listed by the source): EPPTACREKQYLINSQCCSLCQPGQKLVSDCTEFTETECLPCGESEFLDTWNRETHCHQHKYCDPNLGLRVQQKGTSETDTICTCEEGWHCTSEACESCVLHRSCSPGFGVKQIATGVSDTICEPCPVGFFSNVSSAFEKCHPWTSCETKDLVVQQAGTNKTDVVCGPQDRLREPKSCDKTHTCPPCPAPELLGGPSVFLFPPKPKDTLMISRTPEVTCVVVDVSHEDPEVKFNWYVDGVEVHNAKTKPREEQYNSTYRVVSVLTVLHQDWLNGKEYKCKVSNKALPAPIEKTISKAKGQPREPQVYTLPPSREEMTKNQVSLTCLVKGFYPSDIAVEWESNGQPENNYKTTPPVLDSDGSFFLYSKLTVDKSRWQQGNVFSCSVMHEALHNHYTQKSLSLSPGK
READOUT_NAME: EC50 (ng/mL)
Express it in ng/mL; write the number only.

# count of solved cases: 2
humanized antibody huC1C1-V5 (antibody, human IgG1, kappa, V domains shown, Human IgG1/kappa; also called humanized C1C1-V5) VH: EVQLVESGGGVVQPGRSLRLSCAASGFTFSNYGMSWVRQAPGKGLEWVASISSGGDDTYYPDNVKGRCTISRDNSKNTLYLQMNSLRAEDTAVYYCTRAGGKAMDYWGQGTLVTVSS VL: EIVLTQSPATLSLSPGERATLSCRASQSIRDNLHWYQQKPGQSPRLLINYASQSISGIPARFSGSGSGTDFTLTISSLEPEDFAVYYCQQFNSWPLTFGQGTKVEIKR; 0.355
humanized antibody huC1C1-V1 (antibody, human IgG1, kappa, V domains shown, Human IgG1/kappa; also called humanized C1C1-V1) VH: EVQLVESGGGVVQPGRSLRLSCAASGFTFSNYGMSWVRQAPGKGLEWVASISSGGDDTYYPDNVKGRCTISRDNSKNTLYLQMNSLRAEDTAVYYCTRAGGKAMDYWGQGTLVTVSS VL: EIVLTQSPATLSLSPGERATLSCRASQSIRDNLHWYQQKPGQSPRLLINYASQSISGIPARFSGSGSGTDFTLTISSLEPEDFAVYFCQQFNSWPLTFGQGTKVEIKR; 0.382

// moving on: another record for EC50
Ask | Tell us which EC50 value is on record for humanized antibody huC1C1-V2 (antibody, human IgG1, kappa, V domains shown, Human IgG1/kappa) VH: EVQLVESGGGVVQPGRSLRLSCAASGFTFSNYGMSWVRQAPGKGLEWVASISSGGDDTYYPDNVKGRFTISRDNSKNTLYLQMNSLRAEDTAVYYCTRAGGKAMDYWGQGTLVTVSS VL: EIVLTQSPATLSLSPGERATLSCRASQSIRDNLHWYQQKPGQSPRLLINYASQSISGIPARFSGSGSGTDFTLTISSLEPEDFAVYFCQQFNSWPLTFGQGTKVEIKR
Reply | 0.428

# credit: patent US20200332017A1
